Data credit: patent US5395947A

Catalogue of Lethality values
- System: ICR mice
- test.protocol: Acute toxicity test
- Format: in vivo
- Parameters: unit not given here
- measurement.conditions: male, 42.3 mg/kg i.p.; 10080 min
observable: Lethality

[[record]]
compound = "CC(C)C1O[C@H](CN)[C@@H](CN)O1.O=C1C[O][Pt][O]1 [Example 7]"
observable = "Lethality"
value_measured = 33.3

[[record]]
compound = "CCC1O[C@H](CN)[C@@H](CN)O1.O=C1C[O][Pt][O]1 [Example 6]"
observable = "Lethality"
value_measured = 66.7

[[record]]
compound = "NC[C@H]1OC2(CCCC2)O[C@@H]1CN.O=C1C[O][Pt][O]1 [Example 3]"
observable = "Lethality"
value_measured = 33.3

[[record]]
compound = "CC1(C)O[C@H](CN)[C@@H](CN)O1.O=C1C[O][Pt][O]1 [Example 2]"
observable = "Lethality"
value_measured = 83.3


====

Catalogue of Lethality values
- System: ICR mice
- test.protocol: Acute toxicity test
- Format: in vivo
- Parameters: unit not given here
- measurement.conditions: male, 71.4 mg/kg i.p.; 10080 min
observable: Lethality

[[record]]
compound = "CCC1(CC)OC2C[NH2+][Pt-2]3([NH2+]CC2O1)[O]CC(=O)[O]3 (stereo not shown)"
value_measured = 83.3

[[record]]
compound = "CC(C)C1OC(CN)C(CN)O1.CC1[O][Pt][O]C1=O (stereo not shown)"
value_measured = 83.7

[[record]]
compound = "CC1[O][Pt][O]C1=O.NCC1OC2(CCCC2)OC1CN (stereo not shown)"
value_measured = 83.3

[[record]]
compound = "CCC1O[C@H](CN)[C@@H](CN)O1.O=C1C[O][Pt][O]1"
value_measured = 100.0

[[record]]
compound = "CCC1(C)OC2C[NH2+][Pt-2]3([NH2+]CC2O1)[O]CC(=O)[O]3 (stereo not shown)"
value_measured = 83.3

[[record]]
compound = "CC1[O][Pt][O]C1=O.CCC1OC(CN)C(CN)O1 (stereo not shown)"
value_measured = 83.3

[[record]]
compound = "NC[C@H]1OC2(CCCCC2)O[C@@H]1CN.O=C1C[O][Pt][O]1"
value_measured = 66.7

[[record]]
compound = "CC(C)C1O[C@H](CN)[C@@H](CN)O1.O=C1C[O][Pt][O]1"
value_measured = 66.7

[[record]]
compound = "CC1(C)O[C@H](CN)[C@@H](CN)O1.O=C1C[O][Pt][O]1"
value_measured = 100.0

[[record]]
compound = "NC[C@H]1OC2(CCCC2)O[C@@H]1CN.O=C1C[O][Pt][O]1"
value_measured = 100.0


====

- System: ICR mice
- test.protocol: Acute toxicity test
- Assay type: in vivo
- measurement.conditions: female, 55.0 mg/kg i.p.
observable: Number of dead mice, 3rd day

[[record]]
molecule = "CCC1O[C@H](CN)[C@@H](CN)O1.O=C1C[O][Pt][O]1"
value_measured = "4/6"

[[record]]
molecule = "CC(C)C1O[C@H](CN)[C@@H](CN)O1.O=C1C[O][Pt][O]1"
value_measured = "1/6"

[[record]]
molecule = "CC1(C)O[C@H](CN)[C@@H](CN)O1.O=C1C[O][Pt][O]1"
value_measured = "4/6"

[[record]]
molecule = "NC[C@H]1OC2(CCCCC2)O[C@@H]1CN.O=C1C[O][Pt][O]1"
value_measured = "1/6"

[[record]]
molecule = "NC[C@H]1OC2(CCCC2)O[C@@H]1CN.O=C1C[O][Pt][O]1"
value_measured = "4/6"


====

Catalogue of Number of dead mice, 2nd day values
- System: ICR mice
- test.protocol: Acute toxicity test
- Format: in vivo
- measurement.conditions: male, 91.8 mg/kg i.p.
- Description: 7-week-old ICR mice(male: 34±2 g; female: 31±2 g) were fed with solid food and water under the condition of 23±1° C. temperature and 65±5% humidity before the test. Each treatment group consisted of 6 mice. The test compounds were administered intraperitoneally. For 7 days after the administration, the appearance and the fate of the tested animals were recorded. The dead animals were subjected to autopsy and their visible pathological changes were observed. […]
observable: Number of dead mice, 2nd day

[[record]]
compound = "CC1[O][Pt][O]C1=O.CCC1OC(CN)C(CN)O1 (centres unmarked) [Example 18]"
observable = "Number of dead mice, 2nd day"
value_measured = "3/6"

[[record]]
compound = "CC1[O][Pt][O]C1=O.NCC1OC2(CCCC2)OC1CN (centres unmarked) [Example 15]"
observable = "Number of dead mice, 2nd day"
value_measured = "2/6"

[[record]]
compound = "CCC1(C)OC2C[NH2+][Pt-2]3([NH2+]CC2O1)[O]CC(=O)[O]3 (centres unmarked) [Example 9]"
observable = "Number of dead mice, 2nd day"
value_measured = "1/6"

[[record]]
compound = "CCC1(CC)OC2C[NH2+][Pt-2]3([NH2+]CC2O1)[O]CC(=O)[O]3 (centres unmarked) [Example 8]"
observable = "Number of dead mice, 2nd day"
value_measured = "2/6"

[[record]]
compound = "CC(C)C1OC(CN)C(CN)O1.CC1[O][Pt][O]C1=O (centres unmarked) [Example 19]"
observable = "Number of dead mice, 2nd day"
value_measured = "1/6"


====

Catalogue of Number of dead mice, 5th day values
- System: ICR mice
- test.protocol: Acute toxicity test
- Type: in vivo
- measurement.conditions: male, 71.4 mg/kg i.p.
observable: Number of dead mice, 5th day

[[record]]
compound = "CCC1(C)OC2C[NH2+][Pt-2]3([NH2+]CC2O1)[O]CC(=O)[O]3 (stereo not shown)"
value_measured = "2/5"

[[record]]
compound = "CC(C)C1OC(CN)C(CN)O1.CC1[O][Pt][O]C1=O (stereo not shown)"
value_measured = "2/5"

[[record]]
compound = "CC1[O][Pt][O]C1=O.NCC1OC2(CCCC2)OC1CN (stereo not shown)"
value_measured = "1/2"

[[record]]
compound = "CC1[O][Pt][O]C1=O.CCC1OC(CN)C(CN)O1 (stereo not shown)"
value_measured = "2/4"


====

Catalogue of Number of dead mice for 7 days values
- System: ICR mice
- test.protocol: Acute toxicity test
- Assay type: in vivo
- measurement.conditions: male, 41.3 mg/kg i.p.
- Protocol: 7-week-old ICR mice(male: 34±2 g; female: 31±2 g) were fed with solid food and water under the condition of 23±1° C. temperature and 65±5% humidity before the test. Each treatment group consisted of 6 mice. The test compounds were administered intraperitoneally. For 7 days after the administration, the appearance and the fate of the tested animals were recorded. The dead animals were subjected to autopsy and their visible pathological changes were observed. […]
observable: Number of dead mice for 7 days

[[record]]
compound = "CCC1(C)OC2C[NH2+][Pt-2]3([NH2+]CC2O1)[O]CC(=O)[O]3 (centres unmarked)"
observable = "Number of dead mice for 7 days"
value_measured = "0/6"

[[record]]
compound = "CC1[O][Pt][O]C1=O.NCC1OC2(CCCC2)OC1CN (centres unmarked)"
observable = "Number of dead mice for 7 days"
value_measured = "0/6"

[[record]]
compound = "CC(C)C1OC(CN)C(CN)O1.CC1[O][Pt][O]C1=O (centres unmarked)"
observable = "Number of dead mice for 7 days"
value_measured = "3/6"

[[record]]
compound = "CC1[O][Pt][O]C1=O.CCC1OC(CN)C(CN)O1 (centres unmarked)"
observable = "Number of dead mice for 7 days"
value_measured = "4/6"

[[record]]
compound = "CCC1(CC)OC2C[NH2+][Pt-2]3([NH2+]CC2O1)[O]CC(=O)[O]3 (centres unmarked)"
observable = "Number of dead mice for 7 days"
value_measured = "0/6"


====

- System: murine leukemia L1210
- test.protocol: Antitumor activity test on murine leukemia L1210 in vivo
- Set-up: species or system male BDF1 mice
- measurement.conditions: 6.2 mg/kg i.p., days 1, 5, 9
observable: T/C (%)

[[record]]
compound = "NC[C@H]1OC2(CCCCC2)O[C@@H]1CN.O=C1C[O][Pt][O]1"
value_measured = "146%"

[[record]]
compound = "CCC1O[C@H](CN)[C@@H](CN)O1.O=C1C[O][Pt][O]1"
value_measured = "162%"

[[record]]
compound = "CC1(C)OC2C[NH2+][Pt-2]3([NH2+]CC2O1)[O]C(=O)C1(CCC1)C(=O)[O]3 (stereo not shown) [Example 26]"
value_measured = "124%"

[[record]]
compound = "O=C1[O][Pt-2]2([NH2+]CC3OCOC3C[NH2+]2)[O]C(=O)C12CCC2 (stereo not shown)"
value_measured = "122%"


====

Catalogue of Number of dead mice for 7 days values
- System: ICR mice
- test.protocol: Acute toxicity test
- Type: in vivo
- measurement.conditions: female, 55.0 mg/kg i.p.
observable: Number of dead mice for 7 days

[[record]]
molecule = "CC1(C)O[C@H](CN)[C@@H](CN)O1.O=C1C[O][Pt][O]1"
assay_system = "ICR mice"
value_measured = "6/6"

[[record]]
molecule = "CCC1O[C@H](CN)[C@@H](CN)O1.O=C1C[O][Pt][O]1"
assay_system = "ICR mice"
value_measured = "5/6"

[[record]]
molecule = "CC(C)C1O[C@H](CN)[C@@H](CN)O1.O=C1C[O][Pt][O]1"
assay_system = "ICR mice"
value_measured = "2/6"

[[record]]
molecule = "NC[C@H]1OC2(CCCCC2)O[C@@H]1CN.O=C1C[O][Pt][O]1"
assay_system = "ICR mice"
value_measured = "2/6"

[[record]]
molecule = "NC[C@H]1OC2(CCCC2)O[C@@H]1CN.O=C1C[O][Pt][O]1"
assay_system = "ICR mice"
value_measured = "5/6"

